procedure-text: Quantitative highthroughput screen to assess conditional lethalithy of SEM cells grown in Human Plasma-Like Medium with dialyzed fetal bovine serum (HPLM+ds) (AID 1963882); note: nearly all actives have a fitted effect of over 35% in size
test-conditions: SEM B-ALL cells in HPLM+ds, CellTiter-Glo viability, 48 h; series mostly up to 45.8 µM
Procedure: Assay Provider: Jason Cantor Ph.D. Department of Biochemistry University of Wisconsin-Madison, Madison, WI, USA Chemical screening studies have identified drug sensitivities across hundreds of cancer cell lines but most putative therapeutics fail to translate. […] Sets of conditional anticancer compounds spanned phases of clinical development and included non-oncology drugs were assessed. […] 6; Detection; Luminescence, Viewlux PerkinElmer. […]
Results filed as inconclusive are left out. Calls of active or inactive are those of the source. Calls come from the whole dose curve; as a rule, active = well fitted cell-killing curve with a large enough effect; inconclusive = small, poorly fitted or top-dose-only effect, or effect the other way; inactive = no such curve, though single readings can be large or run the other way.
Field 'call' accepts Yes for active, No for inactive

Challenge: What call does the record list for O=C(O)CCNc1cc(N2CCc3ccccc3CC2)nc(-c2ccccn2)n1 ?
Response given: No

Challenge: What call does the record list for O=C1NC(=O)C(=Cc2ccc3nccnc3c2)S1 ?
Response given: No

Challenge: What call does the record list for COc1ccc(C(=O)CC(=O)c2ccc(C(C)(C)C)cc2)cc1 ?
Response given: No

Challenge: What call does the record list for CCOC(=O)C1=C(O)C(=O)N(Cc2ccccc2)C1 ?
Response given: No

Challenge: What call does the record list for CC(C)(C)C(=O)Oc1ccc2c(c1)nc(NC(=O)c1cccc([N+](=O)[O-])c1)n2CCCO ?
Response given: No

Challenge: What call does the record list for CCCC(CCC)C(=O)O ?
Response given: No

Challenge: What call does the record list for N#CC(=C1Nc2ccccc2S1)c1ccnc(OCc2ccc(CN3CCOCC3)cc2)n1 ?
Response given: No

Challenge: What call does the record list for Cn1cc(C=CC(=O)c2cccc(F)c2)cc1C=CC(=O)NO ?
Response given: No

Challenge: What call does the record list for CS(=O)c1ccc(-c2nc(-c3ccc(F)cc3)c(-c3ccncc3)[nH]2)cc1 (stereo not given) ?
Response given: Yes

Challenge: What call does the record list for N[C@@H](Cc1ccc(O)c(O)c1)C(=O)O ?
Response given: No

Challenge: What call does the record list for CC(C)(F)C[C@H](N[C@@H](c1ccc(-c2ccc(S(C)(=O)=O)cc2)cc1)C(F)(F)F)C(=O)NC1(C#N)CC1 ?
Response given: No

Challenge: What call does the record list for Cc1ccc(NC(=O)C2(c3ccc4c(c3)OC(F)(F)O4)CC2)nc1-c1cccc(C(=O)O)c1 ?
Response given: Yes

Challenge: What call does the record list for Cc1ccccc1N1C(=O)c2cc(S(N)(=O)=O)c(Cl)cc2NC1C (stereo not given) ?
Response given: No

Challenge: What call does the record list for COc1cc(C)c(C=CC(C)=CC=CC(C)=CC(=O)O)c(C)c1C ?
Response given: No

Challenge: What call does the record list for Cc1cn([C@H]2C[C@H](N=[N+]=[N-])[C@@H](CO)O2)c(=O)[nH]c1=O ?
Response given: No

Challenge: What call does the record list for Cc1nccn1CC1CCc2c(c3ccccc3n2C)C1=O (stereo not given) ?
Response given: No

Challenge: What call does the record list for CNC1[C@H](O)C(O[C@@H]2C(O)C(O[C@H]3O[C@H]([C@@H](C)NC)CC[C@H]3N)[C@@H](N)C[C@H]2N)OC[C@]1(C)O (stereo not given in full) ?
Response given: No

Challenge: What call does the record list for COc1ccc(-n2nc(C(N)=O)c3c2C(=O)N(c2ccc(N4CCCCC4=O)cc2)CC3)cc1 ?
Response given: No

Challenge: What call does the record list for COc1cc(CCc2cc(NC(=O)c3ccc(N4C[C@@H](C)N[C@@H](C)C4)cc3)n[nH]2)cc(OC)c1 ?
Response given: Yes

Challenge: What call does the record list for Cn1cc(C[C@@H](N)C(=O)O)c2ccccc21 ?
Response given: No

====

procedure-text: Viability qHTS for spleen associated tyrosine kinase inhibitor (SYKi) drug resistant MV4-11 cells (AID 1963824); note: nearly all actives have a fitted effect of over 35% in size
test-conditions: SYKi-resistant MV4-11 viability, CellTiter-Glo, 72 h; series mostly up to 45 µM
Protocol: Department of Medicine, Hematology/Oncology University Hospital Frankfurt, Germany. Trials have shown promising clinical activity of the selective SYK inhibitor entospletinib in patients with high expressing HOXA9/MEIS1 acute leukemias. […] 7; Detection; Luminescence; ViewLux plate reader (PerkinElmer). […] 1. Quantitative high-throughput screening (qHTS) of small molecule compounds was conducted on drug resistant SYKi MV4-11 cell line. […] 7. Luminescence was measured on a ViewLux plate reader (PerkinElmer).
Results filed as inconclusive are left out. Calls of active or inactive are those of the source. Calls follow the shape of the dose curve; as a rule, active = well fitted cell-killing curve with a large enough effect; inconclusive = small, poorly fitted or top-dose-only effect, or effect the other way; inactive = no such curve, though single readings can be large or run the other way.
Field 'call' accepts T for active, F for inactive

Challenge: What call does the record list for CC1=C2C(=O)C=C(CO)[C@@H]2[C@H]2OC(=O)[C@H](C)[C@@H]2[C@@H](O)C1 ?
Response given: F

Challenge: What call does the record list for CCCCC1CCN(CCCC(=O)c2ccccc2C)CC1 ?
Response given: T

Challenge: What call does the record list for O=C(Nc1ccc2[nH]ncc2c1)C1CCC1 ?
Response given: F

Challenge: What call does the record list for C[C@@H]1CN(CC(=O)N2CC(C)(C)c3ncc(Cc4ccc(F)cc4)cc32)[C@@H](CN2CCOC[C@H]2C)CN1 ?
Response given: T

Challenge: What call does the record list for O=C(/C=C/c1ccc(O)cc1)OC[C@H]1O[C@H](O[C@@]2(CO)O[C@@H](CO)[C@H](O)[C@H]2O)[C@H](O)[C@@H](O)[C@@H]1O ?
Response given: F

Challenge: What call does the record list for Cc1ccc2c(Br)cc(Br)c(O)c2n1 ?
Response given: T

Challenge: What call does the record list for COC(=O)[C@]1(C)CCC[C@@]2(C)[C@@H]3CC[C@@H]4C[C@@]3(CC[C@@H]21)C[C@H]4C(=O)O ?
Response given: F

Challenge: What call does the record list for CC(C)=CCC[C@](C)(O)[C@H]1CC[C@]2(C)[C@@H]1[C@H](O)CC1[C@@]3(C)CC[C@H](O)C(C)(C)[C@@H]3[C@@H](O[C@@H]3O[C@H](CO)[C@@H](O)[C@H](O)[C@H]3O[C@@H]3O[C@H](CO)[C@@H](O)[C@H](O)[C@H]3O)C[C@]12C (some centres not stated) ?
Response given: F

Challenge: What call does the record list for CC(=O)C=C=C1C(C)(C)CC(O[C@@H]2O[C@H](CO)[C@@H](O)[C@H](O)[C@H]2O)CC1(C)O (some centres not stated) ?
Response given: F

Challenge: What call does the record list for O=S(=O)(O)CCS ?
Response given: F

Challenge: What call does the record list for O=S(=O)(Cc1ccccc1)Nc1ccc(-c2ccc3c(cnn3-c3ccc(F)cc3)c2)c(C(F)(F)F)c1 ?
Response given: T

Challenge: What call does the record list for Cc1c(OCc2cccc(-c3ccc(C(=O)O)cc3)c2)cc2c(c1C)C(=O)C(C1CCCC1)C2 (configuration not stated) ?
Response given: F

Challenge: What call does the record list for O=C(O)CCC(=O)Nc1ccc(S(=O)(=O)Nc2nccs2)cc1 ?
Response given: F

Challenge: What call does the record list for Cc1ccc(C(C)C)c(O[C@@H]2O[C@H](CO)[C@@H](O)[C@H](O)[C@H]2O)c1 ?
Response given: F

Challenge: What call does the record list for O=c1c2cccnc2n(-c2cccc([N+](=O)[O-])c2)c(=O)n1Cc1ccncc1 ?
Response given: F

Challenge: What call does the record list for Nc1nc(OC(c2ccc(-c3cccc(F)c3)cc2)C(F)(F)F)cc(-c2ccc(C[C@H](N)C(=O)O)cc2)n1 (some centres not stated) ?
Response given: T

Challenge: What call does the record list for CC/C=C\CC1C(=O)C=CC1(CCCCC1CCC(=O)O1)OC(C)=O (configuration not stated) ?
Response given: T

Challenge: What call does the record list for Cc1cc(N2CCN(C(=O)Oc3ccc(-c4ccccc4)cn3)CC2)c2ccccc2n1 ?
Response given: T

Challenge: What call does the record list for C/C=C/C=C/C=C/C(=O)O[C@@H]1C=C(CO)C(O)(C(=O)OC)[C@@]2(C)CCCC(C)(C)C12 (some centres not stated) ?
Response given: T

Challenge: What call does the record list for CCCCCCCCCCCCCCCCCCOCC(O)CO (configuration not stated) ?
Response given: F

Challenge: What call does the record list for CC(=O)N1c2ccc(-c3ccc(C(=O)O)cc3)cc2C(Nc2ccc(Cl)cc2)CC1C (configuration not stated) ?
Response given: T

Challenge: What call does the record list for CCOC(=O)c1cc2ccc(O)cc2oc1=O ?
Response given: T

Challenge: What call does the record list for CCOc1cc(CNC2CCCC2)cc(Cl)c1OCc1ccc(Cl)cc1 ?
Response given: T

Challenge: What call does the record list for CO[C@H]1/C=C\O[C@@]2(C)Oc3c(C)c(O)c4c(O)c(c(/C=N\N5CCN(C6CCCC6)CC5)c(O)c4c3C2=O)NC(=O)/C(C)=C\C=C/[C@H](C)[C@H](O)[C@@H](C)[C@@H](O)[C@@H](C)[C@H](OC(C)=O)[C@@H]1C ?
Response given: T

Challenge: What call does the record list for O=C(Nc1cccc([N+](=O)[O-])c1)c1cccc(S(=O)(=O)N2CCCCCC2)c1 ?
Response given: T

Challenge: What call does the record list for CCn1ccnc1CC1COc2ccccc2O1 (configuration not stated) ?
Response given: F

Challenge: What call does the record list for C=C1[C@@H]2[C@H]3OC(=O)C(=C)[C@@H]3CC[C@@](C)(O)[C@@H]2C[C@@H]1O[C@@H]1O[C@H](CO)[C@@H](O)[C@H](O)[C@H]1O ?
Response given: F

Challenge: What call does the record list for C=C(C)C(=O)OCC(O)CO (configuration not stated) ?
Response given: F

Challenge: What call does the record list for CC(C)(C)c1cc(C=O)cc(C(C)(C)C)c1O ?
Response given: F

Challenge: What call does the record list for COc1cc2c(cc1-c1c(C)noc1C)ncc1[nH]c(=O)n([C@H](C)c3ccccn3)c12 ?
Response given: T

Challenge: What call does the record list for COc1ccc(C2CNC(=O)C2)cc1OC1CCCC1 (configuration not stated) ?
Response given: F

Challenge: What call does the record list for C=C(C)[C@@H]1CC[C@]2(C(=O)O)CC[C@]3(C)C(CCC4[C@]5(C)C(CC[C@]43C)C(C)(C)[C@@H](O)[C@@H]5C(=O)O)C12 (some centres not stated) ?
Response given: F

Challenge: What call does the record list for CN1C(=O)[C@@H](NC(=O)c2n[nH]c(Cc3ccccc3)n2)COc2ccccc21 ?
Response given: F

Challenge: What call does the record list for Nc1nc(Cl)nc2c1ncn2[C@H]1C[C@H](O)[C@@H](CO)O1 ?
Response given: T

Challenge: What call does the record list for Nc1ncn([C@H]2C[C@H](O)[C@@H](CO)O2)c(=O)n1 ?
Response given: T

Challenge: What call does the record list for CN(C)CCCOC1(Cc2ccccc2)CCCCCC1 ?
Response given: F

Challenge: What call does the record list for Cc1c(O)cccc1C(=O)NC(CSc1ccccc1)C(O)CN1CC2CCCCC2CC1C(=O)NC(C)(C)C (configuration not stated) ?
Response given: T

Origin of the recorded values: PubChem BioAssay (NCATS)
